Entries and their Response to siRNA (% growth inhibition)
Tested on: MDA-MB-231 breast tumor cells
PROTOCOL_SUMMARY: Viability of breast tumor cells after siRNA transfection (trypan blue count)
Format: cell-based, human
Parameters: dose or concentration left out as unconfirmed
REPORTED_CONDITIONS: DharmaFECT, 96 hours, vs control siRNA

- SUBSTANCE: "siEVI1-992: siRNA duplex; sense 5′-ggacaaauguucagcacuauu-3′ SEQ ID NO: 11, antisense SEQ ID NO: 12 (sense GGACAAAUGUUCAGCACUAUU; antisense UAGUGCUGAACAUUUGUCCUU; listed as RNA, chemistry not given here)"
  Response to siRNA (% growth inhibition) [%]: 23
- SUBSTANCE: "siEVI1-256: siRNA duplex; sense 5′-ccagauaaaugaucagauauu-3′ SEQ ID NO: 7, antisense SEQ ID NO: 8 (sense CCAGAUAAAUGAUCAGAUAUU; antisense UAUCUGAUCAUUUAUCUGGUU; listed as RNA, chemistry not given here)"
  Response to siRNA (% growth inhibition) [%]: 31
- SUBSTANCE: "siEVI1-2994: siRNA duplex; sense 5′-augaagaaguugaagaugauu-3′ SEQ ID NO: 15, antisense SEQ ID NO: 16 (sense AUGAAGAAGUUGAAGAUGAUU; antisense UCAUCUUCAACUUCUUCAUUU; listed as RNA, chemistry not given here)"
  Response to siRNA (% growth inhibition) [%]: 21
- SUBSTANCE: "siEVI1-979: siRNA duplex; sense 5′-gugcaaagacuguggacaauu-3′ SEQ ID NO: 9, antisense SEQ ID NO: 10 (sense GUGCAAAGACUGUGGACAAUU; antisense UUGUCCACAGUCUUUGCACUU; listed as RNA, chemistry not given here)"
  Response to siRNA (% growth inhibition) [%]: 14
- SUBSTANCE: "siEVI1-2910: siRNA duplex; sense 5′-ggaauguggaggagagaauuu-3′ SEQ ID NO: 13, antisense SEQ ID NO: 14 (sense GGAAUGUGGAGGAGAGAAUUU; antisense AUUCUCUCCUCCACAUUCCUU; listed as RNA, chemistry not given here)"
  Response to siRNA (% growth inhibition) [%]: 21

###

System: TOV-112D ovarian tumor cells
PROTOCOL_SUMMARY: Viability of ovarian tumor cells after siRNA transfection (trypan blue count)
Assay type: cell-based, human
REPORTED_CONDITIONS: 50 nM siRNA, DharmaFECT, 96 hours, vs control siRNA
TEST_READOUT: Response to siRNA (% growth inhibition) (%)

- SUBSTANCE: "siEVI1-256: siRNA duplex; sense 5′-ccagauaaaugaucagauauu-3′ SEQ ID NO: 7, antisense SEQ ID NO: 8 (sense CCAGAUAAAUGAUCAGAUAUU; antisense UAUCUGAUCAUUUAUCUGGUU; listed as RNA, chemistry not given here)"
  ASSAY_SYSTEM: "TOV-112D ovarian tumor cells"
  TEST_READOUT: "Response to siRNA (% growth inhibition)"
  EXPERIMENTAL_RESULT: 36
- SUBSTANCE: "siEVI1-992: siRNA duplex; sense 5′-ggacaaauguucagcacuauu-3′ SEQ ID NO: 11, antisense SEQ ID NO: 12 (sense GGACAAAUGUUCAGCACUAUU; antisense UAGUGCUGAACAUUUGUCCUU; listed as RNA, chemistry not given here)"
  ASSAY_SYSTEM: "TOV-112D ovarian tumor cells"
  TEST_READOUT: "Response to siRNA (% growth inhibition)"
  EXPERIMENTAL_RESULT: 70
- SUBSTANCE: "siEVI1-979: siRNA duplex; sense 5′-gugcaaagacuguggacaauu-3′ SEQ ID NO: 9, antisense SEQ ID NO: 10 (sense GUGCAAAGACUGUGGACAAUU; antisense UUGUCCACAGUCUUUGCACUU; listed as RNA, chemistry not given here)"
  ASSAY_SYSTEM: "TOV-112D ovarian tumor cells"
  TEST_READOUT: "Response to siRNA (% growth inhibition)"
  EXPERIMENTAL_RESULT: 79
- SUBSTANCE: "siEVI1-2994: siRNA duplex; sense 5′-augaagaaguugaagaugauu-3′ SEQ ID NO: 15, antisense SEQ ID NO: 16 (sense AUGAAGAAGUUGAAGAUGAUU; antisense UCAUCUUCAACUUCUUCAUUU; listed as RNA, chemistry not given here)"
  ASSAY_SYSTEM: "TOV-112D ovarian tumor cells"
  TEST_READOUT: "Response to siRNA (% growth inhibition)"
  EXPERIMENTAL_RESULT: 70
- SUBSTANCE: "siEVI1-2910: siRNA duplex; sense 5′-ggaauguggaggagagaauuu-3′ SEQ ID NO: 13, antisense SEQ ID NO: 14 (sense GGAAUGUGGAGGAGAGAAUUU; antisense AUUCUCUCCUCCACAUUCCUU; listed as RNA, chemistry not given here)"
  ASSAY_SYSTEM: "TOV-112D ovarian tumor cells"
  TEST_READOUT: "Response to siRNA (% growth inhibition)"
  EXPERIMENTAL_RESULT: 85
